# experimental-target: kinases (Homo sapiens)
# Construct: purchased Eurofins/DiscoveRx; host or cells: E. coli BL21-derived host (T7 phage display) for most kinases; HEK-293 for the rest
# assay-comment: KINOMEscan kinase binding assay (Eurofins/DiscoveRx), % Ctrl
# measurement-conditions: 1 μM; FLT1
The entries below are paired with their reported % Ctrl, FLT1.
State just the number; it will be interpreted in % Ctrl.

Here are 3 molecules together with their reported answers.
structure-smiles-string: Cc1cc2c([nH]1)/C=C1\C(=O)Nc3cnc(nc31)N(C)CCCOCCN(C)C2=O
unit-descriptor: % Ctrl
% Ctrl, FLT1: 98

structure-smiles-string: Cc1cc2c([nH]1)/C=C1\C(=O)Nc3ccc(cc31)OCCOCCNC2=O
unit-descriptor: % Ctrl
% Ctrl, FLT1: 99

structure-smiles-string: Cc1cc2c([nH]1)/C=C1\C(=O)Nc3ccc(cc31)-c1cnn(C)c1CNCCN(C)C2=O
unit-descriptor: % Ctrl
% Ctrl, FLT1: 11

Next, consider the following molecule.
Prompt: Data request, read-out % Ctrl, FLT1, for `Cc1cc2c([nH]1)/C=C1\C(=O)Nc3cc(Cl)c(cc31)OCCO[C@@H](C(=O)N(C)C)CN(C)C2=O`
Response: 88

###

# experimental-target: kinases (Homo sapiens, UniProt P00519)
# Construct: purchased Eurofins/DiscoveRx; host or cells: E. coli BL21-derived host (T7 phage display) for most kinases; HEK-293 for the rest
# Sequence (P00519 whole entry): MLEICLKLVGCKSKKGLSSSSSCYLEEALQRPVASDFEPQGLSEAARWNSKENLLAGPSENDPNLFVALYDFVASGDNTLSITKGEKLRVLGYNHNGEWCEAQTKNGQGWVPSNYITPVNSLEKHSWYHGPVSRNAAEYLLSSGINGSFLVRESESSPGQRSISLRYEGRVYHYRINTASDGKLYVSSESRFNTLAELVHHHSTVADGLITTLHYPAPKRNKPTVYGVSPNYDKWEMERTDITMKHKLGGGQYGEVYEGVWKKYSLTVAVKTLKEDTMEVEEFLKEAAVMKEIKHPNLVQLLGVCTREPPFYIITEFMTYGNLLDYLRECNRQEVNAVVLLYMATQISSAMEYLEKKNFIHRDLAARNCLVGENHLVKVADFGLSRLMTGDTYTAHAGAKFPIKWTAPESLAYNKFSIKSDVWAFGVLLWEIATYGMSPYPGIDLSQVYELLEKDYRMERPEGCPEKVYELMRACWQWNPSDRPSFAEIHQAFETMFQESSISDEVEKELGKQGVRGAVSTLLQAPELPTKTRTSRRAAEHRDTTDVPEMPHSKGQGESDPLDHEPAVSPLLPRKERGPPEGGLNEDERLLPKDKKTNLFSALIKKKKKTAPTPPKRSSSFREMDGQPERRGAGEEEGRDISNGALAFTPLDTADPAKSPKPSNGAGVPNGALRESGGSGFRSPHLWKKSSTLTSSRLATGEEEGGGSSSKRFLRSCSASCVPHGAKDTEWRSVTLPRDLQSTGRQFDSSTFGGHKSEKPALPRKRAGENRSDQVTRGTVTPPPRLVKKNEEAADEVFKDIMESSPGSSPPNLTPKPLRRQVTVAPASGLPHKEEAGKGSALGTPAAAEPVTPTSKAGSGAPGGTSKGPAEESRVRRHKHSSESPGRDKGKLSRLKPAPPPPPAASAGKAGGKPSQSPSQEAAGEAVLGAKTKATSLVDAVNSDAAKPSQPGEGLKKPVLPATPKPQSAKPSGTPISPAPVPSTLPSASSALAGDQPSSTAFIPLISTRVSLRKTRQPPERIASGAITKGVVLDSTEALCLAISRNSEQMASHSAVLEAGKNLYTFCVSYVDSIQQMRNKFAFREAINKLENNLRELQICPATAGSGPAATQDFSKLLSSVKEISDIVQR
# assay-comment: KINOMEscan kinase binding assay (Eurofins/DiscoveRx), % Ctrl
# measurement-conditions: 1 μM; ABL1-phosphorylated
Mark each entry 1 if its % Ctrl, ABL1-phosphorylated sits below 70 % Ctrl, and -1 for all others.

structure-smiles-string: Cc1cc2c([nH]1)/C=C1\C(=O)Nc3cc(Cl)c(cc31)OCCO[C@@H](C(=O)NC1CCNCC1)CN(C)C2=O
experimental-target: kinases (Homo sapiens, UniProt P00519)
category: 1

structure-smiles-string: CNC(=O)[C@H]1CN(C)C(=O)c2cc(C)[nH]c2/C=C2\C(=O)Nc3cc(Cl)c(cc32)OCCO1
experimental-target: kinases (Homo sapiens, UniProt P00519)
category: 1

structure-smiles-string: Cc1cc2c([nH]1)/C=C1\C(=O)Nc3ccc(cc31)-c1cnn(C)c1CNCCN(C)C2=O
experimental-target: kinases (Homo sapiens, UniProt P00519)
category: 1

# next compound below
Prompt: Hello, is % Ctrl, ABL1-phosphorylated of the following compound strictly smaller than 70 % Ctrl? `Cc1cc2c([nH]1)/C=C1\C(=O)Nc3ccc(cc31)OCCOCCNC2=O`
Response: -1

###

# Tested on: kinases
# assay-comment: KINOMEscan kinase binding assay (Eurofins/DiscoveRx), % Ctrl
# measurement-conditions: 1 μM; EGFR(L747-E749del, A750P)
In this section we review reported % Ctrl, EGFR(L747-E749del, A750P) values for a set of compounds.
A number alone suffices; assume % Ctrl.

Here are 6 compounds together with their reported answers.
compound: Cc1cc2c([nH]1)/C=C1\C(=O)Nc3ccc(cc31)O[C@@H](C)COCCN(C)C2=O [Ex. 92]
unit-descriptor: % Ctrl
observed-value: 91
//
compound: Cc1cc2c([nH]1)/C=C1\C(=O)Nc3ccc(nc31)-c1ccccc1OCCCNC2=O [Ex.22]
unit-descriptor: % Ctrl
observed-value: 73
//
compound: Cc1cc2c([nH]1)/C=C1\C(=O)Nc3cc(Cl)c(cc31)OCCO[C@@H](C(=O)N[C@@H]1CCNC1)CN(C)C2=O [Ex. 136]
unit-descriptor: % Ctrl
observed-value: 80
//
compound: Cc1cc2c([nH]1)/C=C1\C(=O)Nc3cc(Cl)c(cc31)OCCO[C@@H](C(=O)NC1CNC1)CN(C)C2=O [Ex. 133]
unit-descriptor: % Ctrl
observed-value: 100
//
compound: Cc1cc2c([nH]1)/C=C1\C(=O)Nc3ccc(cc31)-c1cnn(C)c1CNCCN(C)C2=O [Ex. 125]
unit-descriptor: % Ctrl
observed-value: 22
//
compound: Cc1cc2c([nH]1)/C=C1\C(=O)Nc3cc(Cl)c(cc31)OCCO[C@@H](C(=O)N(C)C)CN(C)C2=O [Ex. 137]
unit-descriptor: % Ctrl
observed-value: 100

Attention now turns to another entry.
Prompt: Give % Ctrl, EGFR(L747-E749del, A750P) (kinases) of the following compound: Cc1cc2c([nH]1)/C=C1\C(=O)Nc3cc(Cl)c(cc31)OCCO[C@@H](C(=O)NC1CCNCC1)CN(C)C2=O [Ex. 134]
Response: 83
